- tested_target: plasma kallikrein (PK) (Homo sapiens)
- Sequence (P03952 391-638 limits assumed, species assumed): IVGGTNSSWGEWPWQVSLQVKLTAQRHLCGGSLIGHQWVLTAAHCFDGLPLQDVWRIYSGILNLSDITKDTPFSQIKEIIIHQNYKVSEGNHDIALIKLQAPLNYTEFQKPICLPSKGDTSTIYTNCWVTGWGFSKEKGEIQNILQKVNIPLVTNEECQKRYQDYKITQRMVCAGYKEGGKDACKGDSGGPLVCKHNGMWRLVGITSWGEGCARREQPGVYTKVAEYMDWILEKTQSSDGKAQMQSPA
- Sequence (P03952 20-390 partner limits assumed, species assumed): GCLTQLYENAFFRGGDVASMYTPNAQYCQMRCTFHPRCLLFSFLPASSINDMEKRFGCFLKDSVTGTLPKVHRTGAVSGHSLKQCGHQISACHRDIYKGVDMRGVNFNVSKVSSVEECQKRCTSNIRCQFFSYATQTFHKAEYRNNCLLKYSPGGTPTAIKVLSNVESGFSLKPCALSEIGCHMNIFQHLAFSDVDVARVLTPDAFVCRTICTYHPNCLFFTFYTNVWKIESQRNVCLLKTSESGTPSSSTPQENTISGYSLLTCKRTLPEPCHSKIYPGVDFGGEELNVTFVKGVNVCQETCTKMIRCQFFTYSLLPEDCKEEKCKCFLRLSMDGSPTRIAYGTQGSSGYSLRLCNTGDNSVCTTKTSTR
- measurement_notes: Determining the inhibitory constants: inhibition of PK (substrate Bzl-Pro-Phe-Arg-pNA)
- cond: Tris buffer pH 8.0, 25° C.; mean of at least three determinations
experimental_readout: Ki (nM)
One number for each entry, in nM.

Example cases with answers are listed next.
N=C(N)c1ccc(CNC(=O)[C@@H]2CCCN2C(=O)[C@@H](CC2CCCCC2)NS(=O)(=O)Cc2cccc(CNC(=O)CCCC(=O)O)c2)cc1 :: 44
CC(C)(C)OC[C@@H](NS(=O)(=O)Cc1ccccc1)C(=O)N[C@@H](CCCCNC(=O)OCc1ccccc1)C(=O)NCc1ccc(C(=N)N)cc1 :: 9.4
COC(=O)c1ccc(CS(=O)(=O)N[C@H](COC(C)(C)C)C(=O)NCC(=O)NCc2ccc(C(=N)N)cc2)cc1 :: 1100

Consider the following items and state reported Ki for each.
1. N=C(N)c1ccc(CNC(=O)[C@H](CCCCNC(=O)CCCC(=O)O)NC(=O)[C@@H](CO)NS(=O)(=O)Cc2ccccc2)cc1
2. C[C@@H](OCc1ccccc1)[C@H](NC(=O)[C@@H](COC(C)(C)C)NS(=O)(=O)Cc1ccccc1)C(=O)NCc1ccc(C(=N)N)cc1
3. CC(C)(C)OC[C@@H](NS(=O)(=O)Cc1ccccc1)C(=O)N[C@@H](Cc1ccccc1)C(=O)NCc1ccc(C(=N)N)cc1
4. C[C@@H](O)[C@H](NC(=O)[C@@H](COC(C)(C)C)NS(=O)(=O)Cc1ccccc1)C(=O)NCc1ccc(C(=N)N)cc1
5. N=C(N)c1ccc(CNC(=O)[C@H](CCC(=O)O)NC(=O)[C@@H](CCc2ccc(O)cc2)NS(=O)(=O)Cc2ccccc2)cc1
6. CC(C)(C)OC[C@@H](NS(=O)(=O)Cc1ccccc1)C(=O)N[C@@H](COCc1ccccc1)C(=O)NCc1ccc(C(=N)N)cc1
7. N=C(N)c1ccc(CNC(=O)[C@H](CCc2ccccc2)NC(=O)[C@@H](CO)NS(=O)(=O)Cc2ccccc2)cc1
8. N=C(N)c1ccc(CNC(=O)C[C@H](CO)NC(=O)[C@@H](CO)NS(=O)(=O)Cc2ccccc2)cc1

RESULT:
390
44
5.5
32
220
12
48
20

Consider the following items and state reported Ki for each.
1. C[C@@H](OCc1ccccc1)[C@H](NC(=O)[C@@H](CO)NS(=O)(=O)Cc1ccccc1)C(=O)NCc1ccc(C(=N)N)cc1
2. N=C(N)c1ccc(CNC(=O)[C@H](CN)NC(=O)[C@@H](CO)NS(=O)(=O)Cc2ccccc2)cc1

RESULT:
1: 91; 2: 50

###

- tested_target: thrombin (UniProt P00735)
Kindly state log10(Ki) for each of the entries shown.
Scale type: logarithmic (base 10). Underlying Ki unit: nM.

CC(C)(C)OC[C@@H](NS(=O)(=O)Cc1ccccc1)C(=O)N[C@@H](CCCCNC(=O)OCc1ccccc1)C(=O)NCc1ccc(C(=N)N)cc1 [Inhibitor 36] :: 1.38
N=C(N)c1ccc(CNC(=O)CNC(=O)[C@H](NS(=O)(=O)Cc2ccccc2)C2Cc3ccccc3C2)cc1 [Inhibitor 83] :: 2.15
C[C@H](NC(=O)[C@@H](COC(C)(C)C)NS(=O)(=O)Cc1ccccc1)C(=O)NCc1ccc(C(=N)N)cc1 [Inhibitor 27] :: 0.32
N=C(N)c1ccc(CNC(=O)CNC(=O)[C@@H](CO)NS(=O)(=O)Cc2ccc(C(=O)O)cc2)cc1 [Inhibitor 20] :: 5.23
C[C@H](NC(=O)[C@@H](CO)NS(=O)(=O)Cc1ccc(C(=O)O)cc1)C(=O)NCc1ccc(C(=N)N)cc1 [Inhibitor 22] :: 3.36

Consider the following items and state reported log10(Ki) for each.
1. CC(C)(C)OC[C@@H](NS(=O)(=O)Cc1ccccc1)C(=O)N[C@@H](CCONC(=N)N)C(=O)NCc1ccc(C(=N)N)cc1 [Inhibitor 68]
2. N=C(N)c1ccc(CNC(=O)[C@H](CNC(=O)OCc2ccccc2)NC(=O)[C@@H](CO)NS(=O)(=O)Cc2ccccc2)cc1 [Inhibitor 9]
3. C[C@@H](OCc1ccccc1)[C@H](NC(=O)[C@@H](CO)NS(=O)(=O)Cc1ccccc1)C(=O)NCc1ccc(C(=N)N)cc1 [Inhibitor 14]
4. N=C(N)c1ccc(CNC(=O)[C@H](CCC(=O)OCc2ccccc2)NC(=O)[C@@H](CCc2ccncc2)NS(=O)(=O)Cc2ccccc2)cc1 [Inhibitor 60]
5. N=C(N)c1ccc(CNC(=O)CNC(=O)[C@@H](CO)NS(=O)(=O)Cc2ccc(CN)cc2)cc1 [Inhibitor 25]
6. COC(=O)c1ccc(CS(=O)(=O)N[C@H](CO)C(=O)NCC(=O)NCc2ccc(C(=N)N)cc2)cc1 [Inhibitor 21]

RESULT:
[1.58, 3.84, 2.48, 2.23, 3.90, 3.97]

Consider the following items and state reported log10(Ki) for each.
1. CC(C)(C)OC[C@@H](NS(=O)(=O)Cc1ccc(C(=O)O)cc1)C(=O)N1CCC[C@H]1C(=O)NCc1ccc(C(=N)N)cc1 [Inhibitor 70]
2. C[C@H](NC(=O)[C@@H](CO)NS(=O)(=O)Cc1ccccc1)C(=O)NCc1ccc(C(=N)N)cc1 [Inhibitor 2]

RESULT:
1. 0.36
2. 2.04

###

- tested_target: plasma kallikrein (PK) (Homo sapiens)
- measurement_notes: Determining the inhibitory constants: inhibition of PK (substrate Bzl-Pro-Phe-Arg-pNA)
- cond: Tris buffer pH 8.0, 25° C.; mean of at least three determinations
Kindly state pKi for each of the entries shown.
One number for each entry, as −log10 of the molar value.

Example cases with answers are listed next.
C[C@H](NC(=O)[C@@H](CO)NS(=O)(=O)Cc1ccc(C(=O)O)cc1)C(=O)NCc1ccc(C(=N)N)cc1 [Inhibitor 22] :: 7.80
N=C(N)c1ccc(CNC(=O)CNC(=O)[C@H](NS(=O)(=O)Cc2ccccc2)C2Cc3ccccc3C2)cc1 [Inhibitor 83] :: 7.12
N=C(N)c1ccc(CNC(=O)CNC(=O)[C@@H](CC2CCCCC2)NS(=O)(=O)Cc2ccccc2)cc1 [Inhibitor 82] :: 7.00
N=C(N)c1ccc(CNC(=O)[C@H](CCC(N)=O)NC(=O)[C@@H](CO)NS(=O)(=O)Cc2ccccc2)cc1 [Inhibitor 6] :: 7.33
COC(=O)c1ccc(CS(=O)(=O)N[C@H](COC(C)(C)C)C(=O)N[C@@H](C)C(=O)NCc2ccc(C(=N)N)cc2)cc1 [Inhibitor 49] :: 7.27

Consider the following items and state reported pKi for each.
1. N=C(N)c1ccc(CNC(=O)[C@H](CCCCN)NC(=O)[C@@H](CC2CCCCC2)NS(=O)(=O)Cc2ccccc2)cc1 [Inhibitor 53]
2. N=C(N)c1ccc(CNC(=O)CNC(=O)[C@@H](CO)NS(=O)(=O)Cc2ccc(C(=O)O)cc2)cc1 [Inhibitor 20]
3. CC(C)(C)OC[C@@H](NS(=O)(=O)Cc1ccccc1)C(=O)N[C@@H](CCONC(=N)N)C(=O)NCc1ccc(C(=N)N)cc1 [Inhibitor 68]
4. N=C(N)c1ccc(CNC(=O)CNC(=O)[C@@H](CCc2ccccc2)NS(=O)(=O)Cc2ccc(N)cc2)cc1 [Inhibitor 78]
5. COC(=O)c1ccc(CS(=O)(=O)N[C@H](Cc2cccc(C(=N)N)c2)C(=O)NCC(=O)NCc2ccc(C(=N)N)cc2)cc1 [Inhibitor 84]
6. N=C(N)NCC[C@@H](NS(=O)(=O)Cc1ccccc1)C(=O)NCC(=O)NCc1ccc(C(=N)N)cc1 [Inhibitor 80]
7. N#Cc1cccc(CS(=O)(=O)N[C@H](CC2CCCCC2)C(=O)N2CCC[C@H]2C(=O)NCc2ccc(C(=N)N)cc2)c1 [Inhibitor 52]

RESULT:
1: 8.64; 2: 6.15; 3: 7.72; 4: 7.35; 5: 6.85; 6: 7.17; 7: 7.07

Consider the following items and state reported pKi for each.
1. N=C(N)c1ccc(CNC(=O)CNC(=O)[C@@H](CCc2ccccc2)NS(=O)(=O)Cc2ccccc2)cc1 [Inhibitor 76]
2. N=C(N)c1ccc(CNC(=O)[C@H](CO)NC(=O)[C@@H](CO)NS(=O)(=O)Cc2ccc(C(=O)O)cc2)cc1 [Inhibitor 23]
3. N=C(N)c1ccc(CNC(=O)CNC(=O)[C@@H](CO)NS(=O)(=O)Cc2ccc(CN)cc2)cc1 [Inhibitor 25]
4. N=C(N)c1ccc(CNC(=O)[C@H](CCCCNC(=O)OCc2ccccc2)NC(=O)[C@@H](CC2CCCCC2)NS(=O)(=O)Cc2ccccc2)cc1 [Inhibitor 54]
5. CC(C)(C)OC[C@@H](NS(=O)(=O)Cc1ccccc1)C(=O)N[C@@H](CC(=O)O)C(=O)NCc1ccc(C(=N)N)cc1 [Inhibitor 29]
6. CC(C)(C)OC[C@@H](NS(=O)(=O)Cc1ccc(CN)cc1)C(=O)NCC(=O)NCc1ccc(C(=N)N)cc1 [Inhibitor 50]

RESULT:
1: 6.41; 2: 7.54; 3: 5.20; 4: 7.70; 5: 6.04; 6: 5.40

Consider the following items and state reported pKi for each.
1. N=C(N)c1ccc(CNC(=O)[C@H](CCCCNC(=O)COCC(=O)NCCOCCOCCOCCOCCOCCOCCOCCN)NC(=O)[C@@H](CO)NS(=O)(=O)Cc2ccccc2)cc1 [Inhibitor 88]
2. N=C(N)c1ccc(CNC(=O)CNC(=O)[C@@H](CC2CCCCC2)NS(=O)(=O)Cc2ccccc2)cc1 [Inhibitor 63]
3. C[C@H](NC(=O)[C@@H](COC(C)(C)C)NS(=O)(=O)Cc1ccc(C(=O)O)cc1)C(=O)NCc1ccc(C(=N)N)cc1 [Inhibitor 48]
4. N=C(N)c1ccc(CNC(=O)[C@H](CCCCNC(=O)CCC(=O)O)NC(=O)[C@@H](CC2CCCCC2)NS(=O)(=O)Cc2ccccc2)cc1 [Inhibitor 71]
5. CC(C)(C)OC[C@@H](NS(=O)(=O)Cc1ccc(C(=O)O)cc1)C(=O)N[C@@H](CO)C(=O)NCc1ccc(C(=N)N)cc1 [Inhibitor 65]
6. N=C(N)c1ccc(CNC(=O)[C@H](Cc2ccccc2)NC(=O)[C@@H](CO)NS(=O)(=O)Cc2ccccc2)cc1 [Inhibitor 18]
7. N=C(N)NCCC[C@@H](NS(=O)(=O)Cc1ccccc1)C(=O)NCC(=O)NCc1ccc(C(=N)N)cc1 [Inhibitor 81]
8. N=C(N)c1ccc(CNC(=O)[C@H](CCCCNC(=O)OCc2ccccc2)NC(=O)[C@@H](CO)NS(=O)(=O)Cc2ccccc2)cc1 [Inhibitor 11]

RESULT:
1. 6.66
2. 7.96
3. 8.21
4. 7.54
5. 7.82
6. 7.68
7. 7.13
8. 8.46
